test system: Tel (DNA, G4) GGGTTAGGGTTAGGGTTAGGGTTA; test: thiazole orange displacement (G4-FID); conditions: 100 mM KCl; 10 mM sodium cacodylate pH 7.3, 18 °C; thiazole orange displaced; from DC50, TO Kb 2.62 × 10^6
Listed below: Kb values for each entry.

Kindly note: Tel (DNA, G4) GGGTTAGGGTTAGGGTTAGGGTTA, "O=c1c(O)c(-c2ccc(O)cc2)oc2cc(O)cc(O)c12" , Kb value reported: 1.81 ± 0.14 × 10^6 M^-1

Kindly note: Tel (DNA, G4) GGGTTAGGGTTAGGGTTAGGGTTA, "C[n+]1cc2c3c(ccc2c2ccc4cc5c(cc4c21)OCO5)OCO3" , Kb value reported: 0.43 ± 0.03 × 10^6 M^-1

Kindly note: Tel (DNA, G4) GGGTTAGGGTTAGGGTTAGGGTTA, "O=c1c(O)c(-c2ccc(O)c(O)c2)oc2cc(O)cc(O)c12" , Kb value reported: 7.43 ± 0.55 × 10^6 M^-1

Kindly note: Tel (DNA, G4) GGGTTAGGGTTAGGGTTAGGGTTA, "CC1=CC(=O)C(C(C)C)=CC1=O" , Kb value reported: 1.68 ± 0.13 × 10^6 M^-1

Kindly note: Tel (DNA, G4) GGGTTAGGGTTAGGGTTAGGGTTA, "O=C(O[C@@H]1Cc2c(O)cc(O)cc2O[C@@H]1c1cc(O)c(O)c(O)c1)c1cc(O)c(O)c(O)c1" , Kb value reported: 1.81 ± 0.14 × 10^6 M^-1

###

test system: c-KIT (DNA, G4) GGGAGGGCGCTGGGAGGAGGG; assay: thiazole orange displacement (G4-FID); settings: 100 mM KCl; 10 mM sodium cacodylate pH 7.3, 18 °C; 1 µM thiazole orange displaced, 0.5 µM DNA
Rule: DC50 below 1 µM gives MET. Equal to or above 1 µM gives NOT MET.

Record excerpt, results attached:
molecule_smiles=C[n+]1cc2c3c(ccc2c2ccc4cc5c(cc4c21)OCO5)OCO3 label="NOT MET"
molecule_smiles=O=c1c(O)c(-c2ccc(O)c(O)c2)oc2cc(O)cc(O)c12 label=MET

In the record for "O=C(O[C@@H]1Cc2c(O)cc(O)cc2O[C@@H]1c1cc(O)c(O)c(O)c1)c1cc(O)c(O)c(O)c1" , is DC50 less than 1 µM?
NOT MET

In the record for "CC1=CC(=O)C(C(C)C)=CC1=O" , is DC50 less than 1 µM?
NOT MET

In the record for "O=c1c(O)c(-c2ccc(O)cc2)oc2cc(O)cc(O)c12" , is DC50 less than 1 µM?
NOT MET

###

tested on: c-MYC (DNA, G4) GGGGAGGGTGGGGAGGGTGGGGAAGG; assay: thiazole orange displacement (G4-FID); conditions: 100 mM KCl; 10 mM sodium cacodylate pH 7.3, 18 °C; 1 µM thiazole orange displaced, 0.5 µM DNA
Measure name: DC50 (µM)
Your answer should be a plain number; it is taken to be in µM.

Some solved entries appear below for comparison.
molecule_smiles=CC1=CC(=O)C(C(C)C)=CC1=O system_tested="c-MYC (DNA, G4) GGGGAGGGTGGGGAGGGTGGGGAAGG" unit_symbol=µM recorded_result=3.97
molecule_smiles=COc1cc(/C=C/C(=O)CC(=O)/C=C/c2ccc(O)c(OC)c2)ccc1O system_tested="c-MYC (DNA, G4) GGGGAGGGTGGGGAGGGTGGGGAAGG" unit_symbol=µM recorded_result=9.62
molecule_smiles=O=c1c(O)c(-c2ccc(O)cc2)oc2cc(O)cc(O)c12 system_tested="c-MYC (DNA, G4) GGGGAGGGTGGGGAGGGTGGGGAAGG" unit_symbol=µM recorded_result=2.16
molecule_smiles=O=C(O[C@@H]1Cc2c(O)cc(O)cc2O[C@@H]1c1cc(O)c(O)c(O)c1)c1cc(O)c(O)c(O)c1 system_tested="c-MYC (DNA, G4) GGGGAGGGTGGGGAGGGTGGGGAAGG" unit_symbol=µM recorded_result=0.85
molecule_smiles=O=c1c(O)c(-c2ccc(O)c(O)c2)oc2cc(O)cc(O)c12 system_tested="c-MYC (DNA, G4) GGGGAGGGTGGGGAGGGTGGGGAAGG" unit_symbol=µM recorded_result=0.47

Now consider a different compound.
Per the records, this compound ( "C[n+]1cc2c3c(ccc2c2ccc4cc5c(cc4c21)OCO5)OCO3" ) has DC50 equal to 0.32

FYI, the data here is from paper PMC9409388.
